test system: HIV-1 NL 4-3; experiment: HIV-1 infection of C8166 cells (syncytia formation, p24 ELISA) with HIV-1 NL 4-3; type: cell-based; design: key: ++, +, (+), (+)− and − represent decreasing numbers of syncitia formed; ++, +, (+), (+)− and − represent decreasing numbers of syncitia formed; ++, +, (+), (+)− and − represent decreasing numbers of syncitia formed; ++, +, (+), (+)− and − represent decreasing numbers of syncitia formed; ++, +, (+), (+)− and − represent decreasing numbers of syncitia formed; conditions: 0.01 μM; Day 5; C8166 cells
Square brackets hold non-standard residues; d marks the D form. Peptide text beside a SMILES is read from it. Ava = NCCCCC(=O)O
Result type: syncitia formed, Day 5

Q: So what does the record say about syncitia formed, Day 5 for NCC(=O)N1CCC[C@H]1C(=O)NCC(=O)NCCCCC(=O)O [GPG valeric acid, GPG-NHCH2CH2CH2CH2COOH] (H-GPG[Ava]-OH; N-terminus assumed) ?
Ans: (+)

Q: For the compound shown here, N=C(N)NCCC[C@H](NC(=O)CNC(=O)[C@@H]1CCCN1C(=O)CN)C(=O)O [GPGR, reference compound] (H-GPGR-OH; N-terminus and C-terminus assumed) , give the reported syncitia formed, Day 5.
Ans: +

Q: Field request: syncitia formed, Day 5 | item: N=C(N)NCCC[C@H](NC(=O)CNC(=O)[C@@H]1CCCN1C(=O)CN)C(=O)NCCCCC(=O)O [GPGR valeric acid, GPGR-NHCH2CH2CH2CH2COOH] (H-GPGR[Ava]-OH; N-terminus assumed)
Ans: +

Q: State the recorded syncitia formed, Day 5 for this entry: C[C@H](NC(=O)[C@H](CCCNC(=N)N)NC(=O)CNC(=O)[C@@H]1CCCN1C(=O)CN)C(=O)NCCCCC(=O)O [GPGRA valeric acid, GPGRA-NHCH2CH2CH2CH2COOH] (H-GPGRA[Ava]-OH; N-terminus assumed)
Ans: +

Now look at this entry.
Q: Give its syncitia formed, Day 5 value. Item: NCC(=O)N1CCC[C@H]1C(=O)NCC(=O)O [GPG, reference compound] (H-Gly-Pro-Gly-OH)
Ans: (+)

* * *

system: HIV-1 NL 4-3; assay: HIV-1 infection of C8166 cells (syncytia formation, p24 ELISA) with HIV-1 NL 4-3; assay type: cell-based; design: key: ++, +, (+), (+)− and − represent decreasing numbers of syncitia formed; ++, +, (+), (+)− and − represent decreasing numbers of syncitia formed; ++, +, (+), (+)− and − represent decreasing numbers of syncitia formed; ++, +, (+), (+)− and − represent decreasing numbers of syncitia formed; ++, +, (+), (+)− and − represent decreasing numbers of syncitia formed; details: 0.5 μM; Table 6
Square brackets hold non-standard residues; d marks the D form. Peptide text beside a SMILES is read from it. Ava = NCCCCC(=O)O
Result type: Day 6 syncitia formed

Take a look at these entries with their results.
Q: Please look up its Day 6 syncitia formed: NCC(=O)N1CCC[C@H]1C(=O)NCC(=O)NCCCCC(=O)O [GPG valeric acid, GPG-NHCH2CH2CH2CH2COOH] (H-GPG[Ava]-OH; N-terminus assumed)
Ans: −

Q: # input molecule: N=C(N)NCCC[C@H](NC(=O)CNC(=O)[C@@H]1CCCN1C(=O)CN)C(=O)NCCCCC(=O)O [GPGR valeric acid, GPGR-NHCH2CH2CH2CH2COOH] (H-GPGR[Ava]-OH; N-terminus assumed) ; wanted: its Day 6 syncitia formed
Ans: −

Q: Recorded Day 6 syncitia formed for C[C@H](NC(=O)[C@H](CCCNC(=N)N)NC(=O)CNC(=O)[C@@H]1CCCN1C(=O)CN)C(=O)N[C@@H](Cc1ccccc1)C(=O)NCCCCC(=O)O [SPC3 monomer valeric acid, GPGRAF-NHCH2CH2CH2CH2COOH] (H-GPGRAF[Ava]-OH; N-terminus assumed) , please?
Ans: (+)

Q: Fill in the blank: the reported Day 6 syncitia formed of N=C(N)NCCC[C@H](NC(=O)CNC(=O)[C@@H]1CCCN1C(=O)CN)C(=O)O [GPGR, reference compound] (H-GPGR-OH; N-terminus and C-terminus assumed) is ____.
Ans: −

Q: Returns the measured Day 6 syncitia formed for the input molecule. Input: NCC(=O)N1CCC[C@H]1C(=O)NCC(=O)O [GPG, reference compound] (H-Gly-Pro-Gly-OH)
Ans: −

// next entry
Q: Dear colleague, I am looking for the recorded Day 6 syncitia formed of the following molecule: C[C@H](NC(=O)[C@H](CCCNC(=N)N)NC(=O)CNC(=O)[C@@H]1CCCN1C(=O)CN)C(=O)NCCCCC(=O)O [GPGRA valeric acid, GPGRA-NHCH2CH2CH2CH2COOH] (H-GPGRA[Ava]-OH; N-terminus assumed)
Ans: −
